Can you tell me pIC50 for the items I'm about to list?
# Target under test: DNA repair nuclease/redox regulator APEX1 (Homo sapiens, UniProt P27695)
# Sequence (P27695 whole entry): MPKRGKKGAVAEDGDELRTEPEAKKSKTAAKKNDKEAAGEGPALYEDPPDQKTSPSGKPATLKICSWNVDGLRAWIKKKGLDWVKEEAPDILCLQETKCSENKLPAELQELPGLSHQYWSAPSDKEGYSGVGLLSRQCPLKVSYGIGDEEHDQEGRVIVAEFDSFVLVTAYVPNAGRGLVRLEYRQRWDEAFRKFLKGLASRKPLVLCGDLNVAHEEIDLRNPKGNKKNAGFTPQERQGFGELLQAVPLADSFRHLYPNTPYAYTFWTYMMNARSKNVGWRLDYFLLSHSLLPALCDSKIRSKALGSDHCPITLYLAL
# Method description: Inhibition of purified human recombinant APE1 expressed in Escherichia coli M15 cells
Please treat pIC50 as minus the base-10 logarithm of the molar concentration.

# input Would you mind telling me what pIC50 value was observed for Cc1ccc(-c2ccc(CCC(=O)O)n2CC(=O)O)cc1 ?
# output 4.92

# input Would you mind telling me what pIC50 value was observed for O=C(O)CC[S+]([O-])CCC(=O)O ?
# output 4.40

# input Would you mind telling me what pIC50 value was observed for Cc1cc(NC(=O)CCC(=O)O)ccc1NC(=O)c1cccs1 ?
# output 4.00

# input Would you mind telling me what pIC50 value was observed for CN(C)c1ccc(-c2noc(C3CCN(S(=O)(=O)c4cccc(C(=O)O)c4)CC3)n2)cc1 ?
# output 4.40

# input Would you mind telling me what pIC50 value was observed for O=C(O)CCc1ccc(-c2ccc(F)cc2)n1CC(=O)O ?
# output 5.05

# input Would you mind telling me what pIC50 value was observed for Cc1oc(C)c(C(=O)NCC(=O)O)c1C(=O)NCC(=O)O ?
# output 4.59

----------
Can you tell me Ratio IC50 for the items I'm about to list?
# Method description: Selectivity index, IC50 for human recombinant APE1 over exonuclase 3
Form rule: numeric answer, no unit written next to it.

# input Would you mind telling me what Ratio IC50 value was observed for O=C(O)Cn1c(CCCCc2nc3ccccc3n2CC(=O)O)nc2ccccc21 ?
# output 20

# input Would you mind telling me what Ratio IC50 value was observed for O=C(O)CCN1C(=O)/C(=C2/C(=O)N(CC(=O)O)c3ccccc32)SC1=S ?
# output 10

# input Would you mind telling me what Ratio IC50 value was observed for Cc1oc(C)c(C(=O)O)c1COc1ccccc1C(=O)O ?
# output 16

# input Would you mind telling me what Ratio IC50 value was observed for O=C(O)CN1C(=O)/C(=C\c2ccc(-c3cccc(C(=O)O)c3)o2)SC1=S ?
# output 12

# input Would you mind telling me what Ratio IC50 value was observed for O=C(O)Cc1cc(S(=O)(=O)c2ccc(Sc3ccc(C(=O)O)cc3)cc2)ccc1C(=O)O ?
# output 23

----------
# Target under test: DNA repair nuclease/redox regulator APEX1 (Homo sapiens, UniProt P27695)
# Method description: Inhibition of purified human recombinant APE1 expressed in Escherichia coli M15 cells
Outcome measure: log10 of IC50 (log10 of the value in µM)
Transform log10 | Measure IC50 | Unit µM

# input Would you mind telling me what log10 of IC50 value was observed for Cc1oc(C)c(C(=O)O)c1COc1ccccc1C(=O)O ?
# output 0.78

# input Would you mind telling me what log10 of IC50 value was observed for O=C(O)CCS(=O)(=O)CCC(=O)O ?
# output 1.60

# input Would you mind telling me what log10 of IC50 value was observed for C=CCN1C(=O)C(Cc2ccccc2)S/C1=N/c1ccc(C(=O)O)cc1 (stereo not drawn) ?
# output 2.00

# input Would you mind telling me what log10 of IC50 value was observed for O=C(O)CCS(=O)(=O)c1cccc2c(S(=O)(=O)CCC(=O)O)cccc12 ?
# output 1.54

# input Would you mind telling me what log10 of IC50 value was observed for O=C(O)Cn1c(CCCCc2nc3ccccc3n2CC(=O)O)nc2ccccc21 ?
# output 0.60

# input Would you mind telling me what log10 of IC50 value was observed for C/C(CCc1ccc2c(c1)OCO2)=N\N=C1/NC(=O)CC(C(=O)O)S1 (stereo not drawn) ?
# output 1.70

# input Would you mind telling me what log10 of IC50 value was observed for O=C(O)c1ccccc1C(=O)NCc1ccc(CNC(=O)c2ccccc2C(=O)O)cc1 ?
# output 1.48

# input Would you mind telling me what log10 of IC50 value was observed for O=C(O)c1cccc(S(=O)(=O)N2CCCC(c3nc(O)c4nnn(Cc5ccc(F)cc5)c4n3)C2)c1 (stereo not drawn) ?
# output 1.52

# input Would you mind telling me what log10 of IC50 value was observed for CC1([N+](=O)[O-])CN(CCC(=O)O)CN(CCC(=O)O)C1 ?
# output 1.70

# input Would you mind telling me what log10 of IC50 value was observed for O=C(O)CC1OC(=O)c2cc3c(cc21)C(=O)OC3CC(=O)O (stereo not drawn) ?
# output 1.04

# input Would you mind telling me what log10 of IC50 value was observed for O=S(=O)(O)CC(O)CSc1nc2ccccc2s1 (stereo not drawn) ?
# output 2.00

# input Would you mind telling me what log10 of IC50 value was observed for CCN(CC)S(=O)(=O)c1cccc(C(=O)Nc2ccccc2C(=O)O)c1 ?
# output 2.00

# input Would you mind telling me what log10 of IC50 value was observed for O=C(O)CSc1cccc(C(=O)O)c1 ?
# output 1.52

# input Would you mind telling me what log10 of IC50 value was observed for O=C(O)c1cccc(S(=O)(=O)N2CCCC(c3nc(O)c4nnn(Cc5ccccc5Cl)c4n3)C2)c1 (stereo not drawn) ?
# output 1.94

# input Would you mind telling me what log10 of IC50 value was observed for Cc1oc(C(=O)O)cc1CSCc1cc(C(=O)O)oc1C ?
# output 1.60

# input Would you mind telling me what log10 of IC50 value was observed for O=C(O)CN1C(=O)/C(=C2\SC(=S)N(C(Cc3ccccc3)C(=O)O)C2=O)c2ccccc21 (stereo not drawn) ?
# output 0.48

# input Would you mind telling me what log10 of IC50 value was observed for O=C(O)CCc1ccc(-c2ccc(Cl)cc2)n1CC(=O)O ?
# output 0.60

# input Would you mind telling me what log10 of IC50 value was observed for O=C(O)CN1C(=O)/C(=C2\SC(=S)NC2=O)c2ccccc21 ?
# output 0.95

# input Would you mind telling me what log10 of IC50 value was observed for Cc1ccccc1NC(=O)c1cccc(NC(=O)CCC(=O)O)c1 ?
# output 1.54

----------
# Target under test: DNA repair nuclease/redox regulator APEX1 (Homo sapiens)
# Method description: Inhibition of purified human recombinant APE1 expressed in Escherichia coli M15 cells
Outcome measure: IC50 (µM)
Supply the numeric figure in µM, leaving out any unit text.

# input Would you mind telling me what IC50 value was observed for O=C(O)CCn1c(=S)n(CCC(=O)O)c2ccccc21 ?
# output 15

# input Would you mind telling me what IC50 value was observed for O=C(O)Cc1cc(S(=O)(=O)c2ccc(Sc3ccc(C(=O)O)cc3)cc2)ccc1C(=O)O ?
# output 4

# input Would you mind telling me what IC50 value was observed for O=C(O)c1ccc(Oc2ccc(S(=O)(=O)c3ccc(C(=O)O)c(C(=O)O)c3)cc2)cc1 ?
# output 10

# input Would you mind telling me what IC50 value was observed for O=C(O)CNS(=O)(=O)c1ccc2c(c1)C(=O)c1cc(S(=O)(=O)NCC(=O)O)ccc1-2 ?
# output 50

# input Would you mind telling me what IC50 value was observed for O=C(O)c1cccc(NC(=O)C2CCCCC2C(=O)O)c1 (stereo not drawn) ?
# output 55

# input Would you mind telling me what IC50 value was observed for Cc1nc(N(CCC(=O)O)CCC(=O)O)sc1C(C)(C)C ?
# output 60

# input Would you mind telling me what IC50 value was observed for O=C(O)CCCN1C(=O)/C(=C2/C(=O)N(CC(=O)O)c3ccccc32)SC1=S ?
# output 12

# input Would you mind telling me what IC50 value was observed for Nc1ncnc2[nH]c(SCCC(=O)O)nc12 ?
# output 20

# input Would you mind telling me what IC50 value was observed for Cc1nc2ccc(C(=O)O)cc2c(O)c1CCC(=O)O ?
# output 20

# input Would you mind telling me what IC50 value was observed for O=C(O)CCC1(CCC(=O)O)c2ccccc2-c2ccccc21 ?
# output 50

# input Would you mind telling me what IC50 value was observed for Cc1cc(C(=O)O)c(CSCc2cc(C(=O)O)oc2C)o1 ?
# output 20

# input Would you mind telling me what IC50 value was observed for O=C(c1ccc2c(c1)C(=O)N(c1ccccc1C(=O)O)C2=O)c1ccc2c(c1)C(=O)N(c1ccccc1C(=O)O)C2=O ?
# output 8

# input Would you mind telling me what IC50 value was observed for O=C(O)CCn1c(=O)[nH]c(=O)n(CCC(=O)O)c1=O ?
# output 33

----------
Can you tell me IC50 for the items I'm about to list?
# Target under test: DNA repair nuclease/redox regulator APEX1 (Homo sapiens, UniProt P27695)
# Method description: Inhibition of purified human recombinant APE1 expressed in Escherichia coli M15 cells

# input Would you mind telling me what IC50 value was observed for N#C/C(=C\c1ccc(-c2ccccc2[N+](=O)[O-])o1)S(=O)(=O)c1ccccc1 ?
# output > 100 µM

# input Would you mind telling me what IC50 value was observed for O=C(O)CNC(=O)c1cc(=O)[nH]c(=O)[nH]1 ?
# output > 100 µM

# input Would you mind telling me what IC50 value was observed for COC(=O)C1C(=O)c2c([nH]c(C(=O)OCC3CCCO3)c2C)CC1C (stereo unspecified) ?
# output > 100 µM

# input Would you mind telling me what IC50 value was observed for Cc1nc(NC(=O)c2ccco2)sc1C(=O)O ?
# output > 100 µM

# input Would you mind telling me what IC50 value was observed for CC(C)c1nnc(NC(=O)C2CCCN2S(=O)(=O)c2ccc(F)cc2)s1 (stereo unspecified) ?
# output > 100 µM

# input Would you mind telling me what IC50 value was observed for Cc1cc(S(=O)(=O)N2CCOCC2)ccc1OCC(=O)N1CCCC1 ?
# output > 100 µM

# input Would you mind telling me what IC50 value was observed for Cc1oc(CSCC2CCCO2)cc1C(=O)O (stereo unspecified) ?
# output 16 µM

# input Would you mind telling me what IC50 value was observed for Cc1ccc(S(=O)(=O)CCc2nnc(NC(=O)CCc3ccccc3)s2)cc1 ?
# output > 100 µM

# input Would you mind telling me what IC50 value was observed for CCc1nnc(NS(=O)(=O)c2ccc(NC(=O)CCC(=O)O)cc2)s1 ?
# output 80 µM

# input Would you mind telling me what IC50 value was observed for O=C(O)CSc1cc(-c2ccccc2)nc(SCC(=O)O)n1 ?
# output 19 µM

# input Would you mind telling me what IC50 value was observed for Cc1cc(CSCc2cc(C(=O)O)c(C)o2)oc1C(=O)O ?
# output 6 µM

Value source: ChEMBL document CHEMBL1139343
